The reader will find reported solubility values listed item by item below.
# method.notes: Water solubility at 37° C. (equilibrium solubility method)
# Type: physicochemical
# recorded.conditions: 37 °C, thermodynamic from solid
Express your answer in mg/mL, writing the number without its unit.

O=C(O)C1O[C@@H](Oc2cc3oc(-c4ccccc4)cc(=O)c3c(O)c2O)C(O)[C@@H](O)[C@@H]1O (some centres unmarked) [Baicalin Magnesium, baicalin magnesium] = 129

Please turn your attention to the following entry.
Documented solubility of O=C(O)[C@H]1O[C@@H](Oc2cc3oc(-c4ccccc4)cc(=O)c3c(O)c2O)[C@H](O)[C@@H](O)[C@@H]1O [Baicalin] : 0.058
